Target: N-terminally GST-fused purified FAK enzyme (Homo sapiens (Human))
Sequence (Q05397 whole entry, the tested form may be a part): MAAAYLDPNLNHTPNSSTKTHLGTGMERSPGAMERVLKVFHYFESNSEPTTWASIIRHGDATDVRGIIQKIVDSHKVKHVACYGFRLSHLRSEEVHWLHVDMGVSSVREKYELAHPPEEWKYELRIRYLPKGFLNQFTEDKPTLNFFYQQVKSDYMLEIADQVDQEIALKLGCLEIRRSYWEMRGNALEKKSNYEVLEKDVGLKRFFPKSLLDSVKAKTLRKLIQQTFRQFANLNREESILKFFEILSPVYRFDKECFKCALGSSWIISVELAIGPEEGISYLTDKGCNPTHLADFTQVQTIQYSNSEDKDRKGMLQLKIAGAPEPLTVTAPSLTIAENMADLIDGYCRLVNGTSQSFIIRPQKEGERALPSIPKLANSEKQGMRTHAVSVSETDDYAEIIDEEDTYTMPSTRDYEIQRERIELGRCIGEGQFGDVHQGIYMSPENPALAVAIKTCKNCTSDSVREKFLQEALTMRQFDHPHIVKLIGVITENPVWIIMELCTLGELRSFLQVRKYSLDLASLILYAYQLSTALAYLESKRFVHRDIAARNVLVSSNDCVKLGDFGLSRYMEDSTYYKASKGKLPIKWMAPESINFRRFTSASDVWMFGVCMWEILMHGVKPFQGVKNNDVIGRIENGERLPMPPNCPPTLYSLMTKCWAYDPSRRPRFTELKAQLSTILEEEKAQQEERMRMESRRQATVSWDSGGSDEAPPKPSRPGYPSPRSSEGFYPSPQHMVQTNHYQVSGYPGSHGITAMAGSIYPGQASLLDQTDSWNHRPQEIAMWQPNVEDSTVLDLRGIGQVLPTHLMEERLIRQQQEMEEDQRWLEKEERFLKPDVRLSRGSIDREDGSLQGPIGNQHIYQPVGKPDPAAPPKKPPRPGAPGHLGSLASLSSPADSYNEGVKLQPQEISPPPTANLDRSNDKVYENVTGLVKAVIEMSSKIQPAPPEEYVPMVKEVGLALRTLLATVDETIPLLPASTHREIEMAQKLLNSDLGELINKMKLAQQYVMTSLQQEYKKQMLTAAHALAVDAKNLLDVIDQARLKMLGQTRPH
Test: FAK Biacore SPR assay
Assay type: binding
Conditions: Biacore S51, 25° C.
quantity_measured: Kd (nM)
Give bare numbers, in nM.

// worked examples, Kd included
NC(=O)Cc1ccccc1CCc1nc(Nc2ccc(C3CCNCC3)cc2OC(F)(F)F)ncc1C(F)(F)F :: 0.79
COc1cc(C2CCNCC2)ccc1Nc1ncc(C(F)(F)F)c(CCc2ccccc2CC(N)=O)n1 :: 0.74
CCN1CCC(c2ccc(Nc3ncc(C(F)(F)F)c(CCc4ccccc4CC(N)=O)n3)c(OC)c2)CC1 :: 1.5

Give Kd for each of the items listed below.
1. COc1cc(C2CCN(C)CC2)ccc1Nc1ncc(C(F)(F)F)c(CCc2cccc(C(N)=O)c2)n1
2. CN1CCC(c2ccc(Nc3ncc(C(F)(F)F)c(CCc4ccccc4CC(N)=O)n3)c(OC(F)(F)F)c2)CC1

1. 2.9
2. 1.7

// returns reported Kd for input `COc1cc(N2CCNCC2)ccc1Nc1ncc(C(F)(F)F)c(CCc2ccccc2CC(N)=O)n1`
0.29

###

Target: N-terminally GST-fused purified FAK enzyme (Homo sapiens (Human))
Assay: FAK Biacore SPR assay
Format: binding
Conditions: Biacore S51; measured using an extended washing step of 30 minutes
quantity_measured: Kd
# answer = value followed by unit

// returns reported Kd for input COc1cc(C2CCN(C)CC2)ccc1Nc1ncc(C(F)(F)F)c(CCc2ccccc2CC(N)=O)n1 [Compound 3]
0.21 nM

###

FAK enzyme (catalytic domain, amino acids 411-686) (Homo sapiens (Human), UniProt Q05397) data, read-out IC50
Sequence (Q05397 411-686): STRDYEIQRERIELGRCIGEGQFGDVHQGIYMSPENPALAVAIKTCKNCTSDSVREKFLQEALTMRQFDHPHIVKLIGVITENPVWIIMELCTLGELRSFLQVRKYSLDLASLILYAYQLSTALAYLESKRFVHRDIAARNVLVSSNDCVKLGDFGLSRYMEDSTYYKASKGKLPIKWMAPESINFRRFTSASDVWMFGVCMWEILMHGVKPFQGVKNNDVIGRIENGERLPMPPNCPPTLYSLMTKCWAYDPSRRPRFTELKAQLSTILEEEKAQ

Give IC50 for each of the items listed below.
1. COc1cc(C2CCNCC2)ccc1Nc1ncc(C(F)(F)F)c(CCc2cccc(C(N)=O)c2)n1
2. CN1CCC(c2ccc(Nc3ncc(C(F)(F)F)c(CCc4ccccc4CC(N)=O)n3)c(OC(F)(F)F)c2)CC1
3. COc1cc(C2CCN(C)CC2)ccc1Nc1ncc(C(F)(F)F)c(CCc2cccc(C(N)=O)c2)n1
4. COc1cc(N2CCNCC2)ccc1Nc1ncc(C(F)(F)F)c(CCc2ccccc2CC(N)=O)n1
5. COc1cc(C2CCNCC2)ccc1Nc1ncc(C(F)(F)F)c(CCc2ccccc2CC(N)=O)n1

["7.2 nM", "2.2 nM", "2.1 nM", "1.9 nM", "7.1 nM"]

Give IC50 for each of the items listed below.
1. CCN1CCC(c2ccc(Nc3ncc(C(F)(F)F)c(CCc4ccccc4CC(N)=O)n3)c(OC)c2)CC1
2. NC(=O)Cc1ccccc1CCc1nc(Nc2ccc(C3CCNCC3)cc2OC(F)(F)F)ncc1C(F)(F)F

["3.6 nM", "2.7 nM"]

Give IC50 for each of the items listed below.
1. CCN1CCC(c2ccc(Nc3ncc(C(F)(F)F)c(CCc4cccc(C(N)=O)c4)n3)c(OC)c2)CC1
2. CN1CCC(c2ccc(Nc3ncc(C(F)(F)F)c(CCc4ccccc4CC(N)=O)n3)c(F)c2)CC1

["9.4 nM", "5.6 nM"]

// returns reported IC50 for input `COc1cc(C2CCN(C)CC2)ccc1Nc1ncc(C(F)(F)F)c(CCc2ccccc2CC(N)=O)n1`
2.2 nM

###

Target: VEGFR3 cytoplasmic domain (Homo sapiens, UniProt P35916)
Sequence (P35916 25-1363 limits assumed): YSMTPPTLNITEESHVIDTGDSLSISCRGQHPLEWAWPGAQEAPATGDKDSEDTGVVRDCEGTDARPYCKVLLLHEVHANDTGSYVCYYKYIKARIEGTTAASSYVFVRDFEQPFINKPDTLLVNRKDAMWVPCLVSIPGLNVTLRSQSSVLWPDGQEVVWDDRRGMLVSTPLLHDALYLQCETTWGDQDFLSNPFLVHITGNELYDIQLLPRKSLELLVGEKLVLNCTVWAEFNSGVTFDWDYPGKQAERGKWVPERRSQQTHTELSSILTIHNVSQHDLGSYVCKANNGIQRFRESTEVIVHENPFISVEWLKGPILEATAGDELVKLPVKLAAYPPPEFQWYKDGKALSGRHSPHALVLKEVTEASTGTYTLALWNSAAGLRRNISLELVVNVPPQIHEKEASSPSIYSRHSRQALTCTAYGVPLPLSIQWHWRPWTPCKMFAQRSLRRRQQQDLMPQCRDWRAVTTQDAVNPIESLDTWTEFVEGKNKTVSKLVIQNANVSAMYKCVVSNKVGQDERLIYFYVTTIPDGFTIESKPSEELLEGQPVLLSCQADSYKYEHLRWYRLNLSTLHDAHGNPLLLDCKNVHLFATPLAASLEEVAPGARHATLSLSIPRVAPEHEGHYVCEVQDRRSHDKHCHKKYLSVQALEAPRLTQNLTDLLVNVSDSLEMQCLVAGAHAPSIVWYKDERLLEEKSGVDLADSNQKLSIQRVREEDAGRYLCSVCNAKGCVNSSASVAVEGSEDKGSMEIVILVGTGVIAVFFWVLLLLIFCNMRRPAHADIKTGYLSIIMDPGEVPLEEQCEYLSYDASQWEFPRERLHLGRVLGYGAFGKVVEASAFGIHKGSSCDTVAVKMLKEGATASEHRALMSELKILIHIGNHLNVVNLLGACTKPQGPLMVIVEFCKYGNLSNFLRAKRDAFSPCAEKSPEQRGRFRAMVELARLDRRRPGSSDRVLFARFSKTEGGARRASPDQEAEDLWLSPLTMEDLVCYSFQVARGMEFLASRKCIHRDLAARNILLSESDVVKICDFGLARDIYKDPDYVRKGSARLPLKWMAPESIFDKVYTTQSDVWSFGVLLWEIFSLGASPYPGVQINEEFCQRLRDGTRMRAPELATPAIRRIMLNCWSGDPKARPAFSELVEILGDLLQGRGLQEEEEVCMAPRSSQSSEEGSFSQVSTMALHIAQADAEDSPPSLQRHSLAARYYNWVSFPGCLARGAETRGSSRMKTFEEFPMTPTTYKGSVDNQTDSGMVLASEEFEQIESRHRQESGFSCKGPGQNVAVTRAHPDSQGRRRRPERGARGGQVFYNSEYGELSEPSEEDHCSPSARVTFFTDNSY
Assay: VEGFR3 biochemical assay (Alpha Screen)
Details: N-terminal GST-fusion protein (amino acids 798-1298), 500 μM ATP
pIC50: −log10 of the molar value.
Decide using pIC50: a value greater than or equal to 5 is T, a smaller one is F.

Known results for molecules:
CCc1cc(C2CCNCC2)ccc1Nc1ncc(C(F)(F)F)c(CCc2ccccc2CC(N)=O)n1 :: T
NC(=O)Cc1ccccc1CCc1nc(Nc2ccc(C3CCNCC3)cc2OC(F)(F)F)ncc1C(F)(F)F :: F
CN1CCC(c2ccc(Nc3ncc(C(F)(F)F)c(CCc4ccccc4CC(N)=O)n3)c(F)c2)CC1 :: T
COc1cc(C2CCN(C)CC2)ccc1Nc1ncc(C(F)(F)F)c(CCc2ccccc2CC(N)=O)n1 :: T

Form field: pIC50 at least 5? Entry: `CN1CCC(c2ccc(Nc3ncc(C(F)(F)F)c(CCc4ccccc4CC(N)=O)n3)c(OC(F)(F)F)c2)CC1`
F
